Reference source: ChEMBL document CHEMBL1137451

# Test system: Benjaminiella poitrasii
# test.method.notes: Inhibition of Benjaminiella poitrasii chitin synthase at 4 ug/mL
observable: inhibition (%)
Report as a plain number; the unit % is understood.

Please review the following examples before continuing.
[[record]]
mol = "COc1ccc(NC(=O)Nc2cccc(-c3c(C#N)c(N)nc4c3C(=O)CCC4)c2)cc1"
measurement = 71

[[record]]
mol = "N#Cc1c(N)nc2c(c1-c1cccc(NC(=O)Nc3cccc(-c4c(C#N)c(N)nc5c4C(=O)CCC5)c3)c1)C(=O)CCC2"
measurement = 91

[[record]]
mol = "N#Cc1c(N)nc2c(c1-c1ccc(Cl)cc1)C(=O)CCC2"
measurement = 81

[[record]]
mol = "N#Cc1c(N)nc2c(c1-c1ccc([N+](=O)[O-])cc1)C(=O)CCC2"
measurement = 61

[[record]]
mol = "Cc1ccc(-c2c(C#N)c(N)nc3c2C(=O)CCC3)cc1"
measurement = 91

[[record]]
mol = "COc1cc(-c2c(C#N)c(N)nc3c2C(=O)CCC3)cc(OC)c1OC"
measurement = 81


Per the record, CC(=O)Nc1nc2c(c(-c3ccc(C)cc3)c1C#N)C(=O)CCC2 has inhibition of 66

Per the record, N#Cc1c(N)nc2c(c1-c1ccc(F)cc1)C(=O)CCC2 has inhibition of 81

* * *

# Tested on: Fusarium oxysporum
# test.method.notes: Antifungal activity against Fusarium oxysporum 1 at 60 ug/disc after 24 hrs by disc diffusion method
# Assay type: functional
# assay.context: read-out: IZ
observable: zone of inhibition at 60 µg/disc (mm)
Report as a plain number; the unit mm is understood.

Please review the following examples before continuing.
[[record]]
mol = "N#Cc1c(N)nc2c(c1-c1cccc(NC(=O)CCN3CCOCC3)c1)C(=O)CCC2"
observable = "zone of inhibition at 60 µg/disc"
measurement_units = "mm"
measurement = 3

[[record]]
mol = "CC(=O)Nc1nc2c(c(-c3cccc(N4C(=O)C=CC4=O)c3)c1C#N)C(=O)CCC2"
observable = "zone of inhibition at 60 µg/disc"
measurement_units = "mm"
measurement = 2

[[record]]
mol = "CC(=O)Nc1nc2c(c(-c3ccc(C)cc3)c1C#N)C(=O)CCC2"
observable = "zone of inhibition at 60 µg/disc"
measurement_units = "mm"
measurement = 3

[[record]]
mol = "N#Cc1c(N)nc2c(c1-c1ccc(Cl)cc1)C(=O)CCC2"
observable = "zone of inhibition at 60 µg/disc"
measurement_units = "mm"
measurement = 4


Per the record, N#Cc1c(N)nc2c(c1-c1ccccc1Cl)C(=O)CCC2 has zone of inhibition at 60 µg/disc of 3

* * *

# Test system: Candida albicans
# test.method.notes: Antifungal activity against Candida albicans 1 at 100 ug/disc after 24 hrs by disc diffusion method
# Assay type: functional
# assay.context: read-out: IZ
observable: zone of inhibition at 100 µg/disc (mm)
Report as a plain number; the unit mm is understood.

[[record]]
molecule = "Cc1ccc(-c2c(C#N)c(N)nc3c2C(=O)CCC3)cc1"
measurement_units = "mm"
measurement = 7

[[record]]
molecule = "N#Cc1c(N)nc2c(c1-c1cccc([N+](=O)[O-])c1)C(=O)CCC2"
measurement_units = "mm"
measurement = 7

[[record]]
molecule = "N#Cc1c(N)nc2c(c1-c1cccc(N3C(=O)C=CC3=O)c1)C(=O)CCC2"
measurement_units = "mm"
measurement = 7


Per the record, C[C@@H]1C[C@@H]([C@H](O)CC2CC(=O)NC(=O)C2)C(=O)[C@@H](C)C1 [CYCLOHEXIMIDE] has zone of inhibition at 100 µg/disc of 7

Per the record, COc1cc(-c2c(C#N)c(N)nc3c2C(=O)CCC3)cc(OC)c1OC has zone of inhibition at 100 µg/disc of 7

Per the record, COc1ccc(-c2c(C#N)c(N)nc3c2C(=O)CCC3)cc1 has zone of inhibition at 100 µg/disc of 4

Per the record, N#Cc1c(N)nc2c(c1-c1cccc(NC(=O)CCN3CCOCC3)c1)C(=O)CCC2 has zone of inhibition at 100 µg/disc of 7

Per the record, N#Cc1c(N)nc2c(c1-c1cccc(NC(=O)Nc3cccc(-c4c(C#N)c(N)nc5c4C(=O)CCC5)c3)c1)C(=O)CCC2 has zone of inhibition at 100 µg/disc of 7

Per the record, N#Cc1c(N)nc2c(c1-c1ccc(Cl)cc1)C(=O)CCC2 has zone of inhibition at 100 µg/disc of 5

Per the record, COc1ccc(NC(=O)Nc2cccc(-c3c(C#N)c(N)nc4c3C(=O)CCC4)c2)cc1 has zone of inhibition at 100 µg/disc of 6

Per the record, CC(=O)Nc1nc2c(c(-c3ccc(C)cc3)c1C#N)C(=O)CCC2 has zone of inhibition at 100 µg/disc of 7

Per the record, N#Cc1c(N)nc2c(c1-c1ccc(F)cc1)C(=O)CCC2 has zone of inhibition at 100 µg/disc of 6
